Where do these numbers come from? They come from paper PMC10584170.

- Test system: P. falciparum male gametocytes
- Method summary: P. falciparum Dual Gamete Formation Assay (PfDGFA), male readout (exflagellation)
- Type: cell-based, Plasmodium falciparum NF54
- Stated conditions: 2µM, 24h preincubation with gametocytes; replicate R3
Test readout: % inhibition male (individual replicates) R3 (%)
# unit: % | format: bare number

Recorded % inhibition male (individual replicates) R3, per entry:
>>> print(df.to_string())
                                   compound                          system  display_unit  result_value
0  COc1cccc(OC)c1CN1CCC(N(C)CCCCCCCCCN2CCC(OC(=O)Nc3ccccc3-c3ccccc3)CC2)CC1  P. falciparum male gametocytes             %          83.2
1                O=[N+]([O-])c1ccc(C=NO)nc1  P. falciparum male gametocytes             %          95.1
2  N=C(N)Nc1nc(-c2ccc(NCc3ccc(CNc4cccc(-c5csc(NC(=N)N)n5)c4)cc3)cc2)cs1  P. falciparum male gametocytes             %          98.0
3  COc1ccc(CCNCCCCNCCc2ccc(OC)c3ccccc23)c2ccccc12.CS(=O)(=O)O  P. falciparum male gametocytes             %          95.1
4  S=C(NN=Cc1ccccn1)NC1CC2C=CC1C2 (centres unmarked)  P. falciparum male gametocytes             %         101.6

Q: Param item = CN(CCCNCc1ccc2ccccc2c1)CCCNCc1ccc2ccccc2c1.Cl ; retrieve measured % inhibition male (individual replicates) R3.
Ans: 92.7

Q: Given the entry CCCC(N)C(=O)NC1CCN(c2c(F)c(N)c3c(=O)c(C(=O)O)cn4c3c2Oc2ccccc2-4)C1.Cl (centres unmarked) , report its measured % inhibition male (individual replicates) R3.
Ans: 88.1

Q: Look up % inhibition male (individual replicates) R3: C=CC(C)C1OC(=O)c2cc(OC)cc(OC)c21 (centres unmarked)
Ans: 101.1

* * *

- System: P. falciparum male gametocytes
- Method summary: P. falciparum Dual Gamete Formation Assay (PfDGFA), male readout (exflagellation)
- Assay type: cell-based, Plasmodium falciparum NF54
- Stated conditions: PfDGFA at 2µM, 24h preincubation with gametocytes prior to induction of gametogenesis; replicate R1
Reported % inhibition male (individual replicates) R1 values follow for various compounds

Sample answers from the record:
>>> print(df.to_string())
                                   compound                          system  result_value
0  Cc1cc(F)ccc1-c1nc(Nc2ccncc2)c2ccn(C)c2n1  P. falciparum male gametocytes        -14.5%
1  CC(=O)c1ccc(NC(=O)NNC(=O)c2ccc(CCN3CCC(c4nc(COCC(F)(F)F)c(-c5ccc(F)cc5)o4)CC3)cc2)cc1  P. falciparum male gametocytes          1.3%

Q: Look at this compound and give its reported % inhibition male (individual replicates) R1. [O-][S+]1c2ccccc2Sc2ccccc21
Ans: 13.3%

Q: Data request, read-out % inhibition male (individual replicates) R1, for Cc1nc2nc(N)nc(N)c2c(C)c1Cc1ccccc1Br.Cl
Ans: 34.5%

Q: Quick check: % inhibition male (individual replicates) R1 of C=CCn1ccc2c3c(N)nc(N)nc3ccc21 ?
Ans: 38.6%

Q: Item under review: CCc1cc2c3c(N)nc(N)nc3ccc2n1C(C)(C)C . Reported % inhibition male (individual replicates) R1?
Ans: 25.5%

Q: Reported % inhibition male (individual replicates) R1 for Br.c1cc(C2=NC3CCCCC3N2)ccc1OCCCCCOc1ccc(C2=NC3CCCCC3N2)cc1 (centres unmarked) : what is it?
Ans: 3.7%

Q: # lookup: % inhibition male (individual replicates) R1 of CC(O)C1CCCCN1C(=O)c1ccc(-c2ccc(-c3nc4ccccc4[nH]3)s2)cc1 (centres unmarked)
Ans: 10.5%

Q: Can you share its % inhibition male (individual replicates) R1? I mean this compound: COc1ccc(O)c(Cc2cnc3nc(N)[nH]c(=O)c3c2C)c1.CS(=O)(=O)O
Ans: 13.3%

* * *

- Tested on: P. falciparum female gametocytes
- Method summary: P. falciparum Dual Gamete Formation Assay (PfDGFA), female readout (Pfs25-positive female gametes)
- Format: cell-based, Plasmodium falciparum NF54
Please use Fulfilled whenever Cytotox ratio Pf Female is not below 3, and Not fulfilled whenever it is.

Check out these entries, answers already filled in.
In [3]: df
Out[3]:
                  compound_structure_string    group_label
0  CCCCNS(=O)(=O)c1ccc(NC(=O)c2cc([N+](=O)[O-])ccc2Cl)cc1      Fulfilled
1  CCn1c(-c2nonc2N)nc2c(-c3ccccc3)ncc(OCCCNCCCN3CCOCC3)c21.O=C(O)C(F)(F)F  Not fulfilled

Please look at the following compound next.
Q: Cytotox ratio Pf Female >= 3 for Cc1cc(Nc2ccncc2)n2nc(C)c(-c3ccc(Cl)cc3)c2n1 ?
Ans: Fulfilled

* * *

Listed here: items and their measured Average inhibition female (%).
- Tested on: P. falciparum female gametocytes
- Method summary: P. falciparum Dual Gamete Formation Assay (PfDGFA), female readout (Pfs25-positive female gametes)
- Type: cell-based, Plasmodium falciparum NF54
- Stated conditions: 2µM, 24h preincubation with gametocytes; average of replicates
Response body: numeric value in %, unit text excluded.

In [3]: df
Out[3]:
                                   compound                            system  result_value
0  COc1ccc(CCNCCCCCCNCCc2ccc(-c3ccccc3)cc2)cc1OC.Cl  P. falciparum female gametocytes          51.9
1  C#CCOc1ccc2ccccc2c1CNCCCCCCNCc1c(OCC#C)ccc2ccccc12.CS(=O)(=O)O  P. falciparum female gametocytes          57.5
2  Cl.N=C(N)NN=Cc1c2ccc(Cl)cc2c(Cl)c2ccc(Cl)cc12  P. falciparum female gametocytes          57.1
3  Cl.Clc1ccc(OCCC2CCN(CCCCCCCN3CCC(CCOc4ccc(Cl)c(Cl)c4)CC3)CC2)cc1Cl  P. falciparum female gametocytes          87.8
4  Cc1c(Cn2nc(Cl)c(N3CCNCC3)cc2=O)cccc1NC(=O)Nc1ccc(-c2ccccc2)cc1.O=C(O)C(F)(F)F  P. falciparum female gametocytes          53.7

Q: Entry CCCC(N)C(=O)NC1CCN(c2c(F)c(N)c3c(=O)c(C(=O)O)cn4c3c2Oc2ccccc2-4)C1.Cl (centres unmarked) : reported Average inhibition female (%) = ?
Ans: 53.0

Q: Any idea what Average inhibition female (%) was measured for COc1ccc(CCNCCCCCCNCCc2ccc(Cl)c3ccccc23)cc1OC.Cl ?
Ans: 44.5

Q: What measured Average inhibition female (%) goes with CC(=NNC(=S)NC(C)(C)C)c1ccccn1 ?
Ans: 58.4

* * *

Here the recorded % inhibition female (individual replicates) R4 is given for each entry.
- System: P. falciparum female gametocytes
- Method summary: P. falciparum Dual Gamete Formation Assay (PfDGFA), female readout (Pfs25-positive female gametes)
- Type: cell-based, Plasmodium falciparum NF54
- Stated conditions: 2µM, 24h preincubation with gametocytes prior to induction of gametogenesis; replicate R4
Please respond with the number in % and leave the unit unwritten.

// solved cases for % inhibition female (individual replicates) R4 follow
>>> print(df.to_string())
                                   molecule  result_value
0  Cc1cccc(-c2cccc(CNc3nc(NCCc4ccc(O)cc4)nc(N4CCNCC4)n3)c2)c1.O=C(O)C(F)(F)F [TCMDC-133810]          18.6
1  COc1cc2ncnc(Nc3ccc(OCc4ccccc4)c(OCc4ccccc4)c3)c2cc1OC.Cl [TCMDC-131922]           4.3
2  Cc1cc(-c2cccc(CNC3CCN(C)CC3)c2)ccc1S(=O)(=O)NCc1ccccc1.O=C(O)C(F)(F)F [TCMDC-132379]          -4.5

Now let's try a different one.
Q: Dear colleague, I am looking for the recorded % inhibition female (individual replicates) R4 of the following molecule: NC1CCN(Cc2ccc(-c3ccc(-c4nc5ccccc5[nH]4)cc3)cc2)C1.O=C(O)C(F)(F)F (centres unmarked) [TCMDC-133868]
Ans: 34.5

* * *

- Test system: P. falciparum female gametocytes
- Method summary: P. falciparum Dual Gamete Formation Assay (PfDGFA), female readout (Pfs25-positive female gametes)
- Type: cell-based, Plasmodium falciparum NF54
- Stated conditions: PfDGFA at 2µM, 24h preincubation; average of replicates
Test readout: Average inhibition female (%)

Compound	System	Average inhibition female (%)
Cc1nc2nc(N)nc(N)c2c(C)c1Cc1ccccc1Br.Cl [TCMDC-137242]	P. falciparum female gametocytes	-2.4%
COc1ccc(C(=O)Nc2cc(Cl)c3c(c2)C2CCCN2CC3)cc1C(F)(F)F.Cl (centres unmarked) [TCMDC-139417]	P. falciparum female gametocytes	1.8%
Cc1cc(F)ccc1-c1nc(Nc2ccncc2)c2ccn(C)c2n1 [TCMDC-141231]	P. falciparum female gametocytes	-2.8%
CNC(=O)C(NC(=O)c1ccccc1C(=O)OC)c1ccccc1 (centres unmarked) [TCMDC-137226]	P. falciparum female gametocytes	2.2%
CC(C)n1cc2c(ccc3nc(N)nc(N)c32)n1 [TCMDC-137865]	P. falciparum female gametocytes	-0.07%

Q: State the recorded Average inhibition female (%) for this entry: O=C(Nc1ccsc1)Nc1cccc(-c2ccc(-c3nc4cc(C(F)(F)F)ccc4[nH]3)cc2)c1 [TCMDC-133210]
Ans: -7.9%

Q: So what does the record say about Average inhibition female (%) for CC(=O)Nc1cccc(Nc2nccc(-c3c(-c4cccc(NC(=O)c5c(F)cccc5F)c4)nn4ncccc34)n2)c1 [TCMDC-135548] ?
Ans: -11.7%

Q: Looking for the measured Average inhibition female (%) of COc1ccc(C2CC(c3cccs3)=NN2C(=O)c2ccccc2)cc1OC (centres unmarked) [TCMDC-123755] , can you help?
Ans: -3.5%

Q: Requested field: Average inhibition female (%). Item: COc1ccc(NC(=O)[C@H](Cc2ccccc2)Nc2cc(C)nc(NCCc3ccccn3)n2)cc1.O=C(O)C(F)(F)F [TCMDC-134746]
Ans: 1.5%

Q: Reported Average inhibition female (%) for CC(=O)Nc1ccc(Nc2ncc([N+](=O)[O-])c(Nc3ccccc3C(N)=O)n2)cc1.Cl [TCMDC-138731] : what is it?
Ans: -0.8%

Q: Consider the compound shown here: CCc1c(CCNCCCCCCNCCc2ccc(Br)cc2)ccc(OC)c1OC.Cl [TCMDC-132045] What is its recorded Average inhibition female (%)?
Ans: -21.6%

Q: Field request: Average inhibition female (%) | item: CCCc1cc(Cc2cnc(N)nc2N)cc(CCC)c1O.Cl [TCMDC-137695]
Ans: -4.4%

Q: # input compound: Cc1c(Cc2ccccc2Br)cnc2nc(N)nc(N)c12.Cl [TCMDC-137244] ; wanted: its Average inhibition female (%)
Ans: -6.0%

Q: # query: Average inhibition female (%) of entry C=C[C@]1(C)C[C@@H](OC(=O)CNC[C@@H](O)CN2C[C@H](c3ccnc4ccc(OC)nc34)OC2=O)[C@]2(C)[C@H](C)CC[C@]3(CCC(=O)[C@H]32)[C@@H](C)[C@@H]1O [TCMDC-135366]
Ans: -7.1%
